measurementTarget: 5-HT1A human receptors (Homo sapiens, UniProt P08908)
Construct: expressed in transfected cells; host or cells: CHO cells
assayName: 5-HT1A radioligand receptor binding assay ([3H]-8-OH-DPAT)
runConditions: membranes from CHO cells; [3H]-8-OH-DPAT; one binding site model; read-out: 5-HT1A Receptor Binding IC50

| molecule | IC50 (nM) |
| --- | --- |
| CCCn1c(=O)n(C/C=C\CN2CCN(c3ccccc3)CC2)c2ccccc21 | 16 |
| O=c1n(C/C=C/CN2CCN(c3ccccn3)CC2)c2ccccc2n1CC1CCCCC1 | 1.2 |
| Cn1c(=O)n(C/C=C/CN2CCc3c([nH]c4ccccc34)C2)c2ccccc21 | 15 |
| Cn1c(=O)n(C/C=C/CN2CCN(c3cccc(Cl)c3)CC2)c2ccccc21 | 4.6 |

----------
measurementTarget: D4 human receptors (Homo sapiens)
Construct: expressed in transfected cells; host or cells: CHO cells
Sequence (P21917 whole entry): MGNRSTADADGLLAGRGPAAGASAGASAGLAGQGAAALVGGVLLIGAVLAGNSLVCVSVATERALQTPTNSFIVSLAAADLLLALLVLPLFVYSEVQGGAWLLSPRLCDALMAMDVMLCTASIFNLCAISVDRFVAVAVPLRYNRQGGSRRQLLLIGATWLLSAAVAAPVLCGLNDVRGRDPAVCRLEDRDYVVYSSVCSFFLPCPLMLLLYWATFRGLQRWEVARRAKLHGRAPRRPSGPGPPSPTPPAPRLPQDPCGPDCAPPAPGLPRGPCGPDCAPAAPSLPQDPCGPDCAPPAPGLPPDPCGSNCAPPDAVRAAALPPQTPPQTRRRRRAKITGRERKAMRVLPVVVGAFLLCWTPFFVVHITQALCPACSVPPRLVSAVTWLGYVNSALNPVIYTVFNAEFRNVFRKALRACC
assayName: D4 radioligand receptor binding assay ([3H] YM-09151-2)
runConditions: compound 10^−7 M, singlicate; membranes from CHO cells; [3H] YM-09151-2 0.15-0.25 nM

| compound | measurementTarget | inhibition at 0.1 µM, % |
| --- | --- | --- |
| Cn1c(=O)n(C/C=C\CN2CC=C(c3ccccc3)CC2)c2ccccc21 [Compound 44] | D4 human receptors (Homo sapiens) | 69 |
| O=c1[nH]c2ccccc2n1C/C=C/CN1CCN(c2cccc(C(F)(F)F)c2)CC1 [Compound 9] | D4 human receptors (Homo sapiens) | 54 |
| CCCn1c(=O)n(C/C=C\CN2CCN(c3ccccc3)CC2)c2ccccc21 [Compound 52] | D4 human receptors (Homo sapiens) | 47 |
| O=c1[nH]c2ccccc2n1C/C=C\CN1CC=C(c2ccccc2)CC1 [Compound 27] | D4 human receptors (Homo sapiens) | 70 |
| CCCn1c(=O)n(C/C=C\CN2CCN(c3cccc(C(F)(F)F)c3)CC2)c2ccccc21 [Compound 60] | D4 human receptors (Homo sapiens) | 30 |
| Cn1c(=O)n(C/C=C\CN2CCN(c3cccc(Cl)c3)CC2)c2ccccc21 [Compound 39] | D4 human receptors (Homo sapiens) | 72 |
| Cn1c(=O)n(C/C=C\CN2CCN(c3ccccc3)CC2)c2ccccc21 [Compound 35] | D4 human receptors (Homo sapiens) | 59 |
| CCCn1c(=O)n(C/C=C/CN2CCN(c3cccc(Cl)c3)CC2)c2ccccc21 [Compound 107] | D4 human receptors (Homo sapiens) | 69 |
| O=c1n(C/C=C\CN2CCN(c3ccccc3)CC2)c2ccccc2n1CC1CCCCC1 [Compound 69] | D4 human receptors (Homo sapiens) | 41 |
| CCCn1c(=O)n(C/C=C/CN2CC=C(c3ccccc3)CC2)c2ccccc21 [Compound 112] | D4 human receptors (Homo sapiens) | 43 |
| CCCn1c(=O)n(C/C=C/CN2CCN(c3ccccn3)CC2)c2ccccc21 [Compound 106] | D4 human receptors (Homo sapiens) | 37 |
| CCCn1c(=O)n(C/C=C/CN2CCN(c3cccc(C(F)(F)F)c3)CC2)c2ccccc21 [Compound 111] | D4 human receptors (Homo sapiens) | 32 |
| O=c1n(C/C=C/CN2CCN(c3ccccn3)CC2)c2ccccc2n1CC1CCCCC1 [Compound 123] | D4 human receptors (Homo sapiens) | 57 |
| Cn1c(=O)n(C/C=C/CN2CCN(c3cccc(Cl)c3)CC2)c2ccccc21 [Compound 90] | D4 human receptors (Homo sapiens) | 79 |
| Cn1c(=O)n(C/C=C/CN2CC=C(c3ccccc3)CC2)c2ccccc21 [Compound 95] | D4 human receptors (Homo sapiens) | 46 |
| Cn1c(=O)n(C/C=C/CN2CCN(c3ccccn3)CC2)c2ccccc21 [Compound 89] | D4 human receptors (Homo sapiens) | 34 |
| O=c1n(C/C=C/CN2CCN(c3ccccc3)CC2)c2ccccc2n1CC1CCCCC1 [Compound 120] | D4 human receptors (Homo sapiens) | 49 |
| CCCn1c(=O)n(C/C=C\CN2CCN(c3cccc(Cl)c3)CC2)c2ccccc21 [Compound 56] | D4 human receptors (Homo sapiens) | 65 |
| Cn1c(=O)n(C/C=C/CN2CCc3c([nH]c4ccccc34)C2)c2ccccc21 [Compound 92] | D4 human receptors (Homo sapiens) | 54 |
| O=c1n(C/C=C\CN2CC=C(c3ccccc3)CC2)c2ccccc2n1CC1CCCCC1 [Compound 78] | D4 human receptors (Homo sapiens) | 40 |
| O=c1[nH]c2ccccc2n1C/C=C\CN1CCN(c2cccc(C(F)(F)F)c2)CC1 [Compound 26] | D4 human receptors (Homo sapiens) | 49 |
| Cn1c(=O)n(C/C=C\CN2CCN(c3cccc(C(F)(F)F)c3)CC2)c2ccccc21 [Compound 43] | D4 human receptors (Homo sapiens) | 54 |
| O=c1n(C/C=C/CN2CCN(c3cccc(Cl)c3)CC2)c2ccccc2n1CC1CCCCC1 [Compound 124] | D4 human receptors (Homo sapiens) | 49 |
| O=c1n(C/C=C/CN2CCN(c3ncccn3)CC2)c2ccccc2n1CC1CCCCC1 [Compound 125] | D4 human receptors (Homo sapiens) | 51 |
| CCCn1c(=O)n(C/C=C\CN2CC=C(c3ccccc3)CC2)c2ccccc21 [Compound 61] | D4 human receptors (Homo sapiens) | 44 |

----------
measurementTarget: 5-HT1A human receptors (Homo sapiens, UniProt P08908)
Construct: expressed in transfected cells; host or cells: CHO cells
assayName: 5-HT1A radioligand receptor binding assay ([3H]-8-OH-DPAT)
runConditions: membranes from CHO cells; [3H]-8-OH-DPAT; one binding site model; read-out: 5-HT1A Receptor Binding IC50

| molecule | measurementTarget | IC50 |
| --- | --- | --- |
| CCCn1c(=O)n(C/C=C/CN2CCN(c3ccccn3)CC2)c2ccccc21 | 5-HT1A human receptors (Homo sapiens, UniProt P08908) | 7.4 nM |
| Cn1c(=O)n(C/C=C\CN2CCN(c3cccc(C(F)(F)F)c3)CC2)c2ccccc21 | 5-HT1A human receptors (Homo sapiens, UniProt P08908) | 1.2 nM |
| O=c1n(C/C=C/CN2CCc3c([nH]c4ccccc34)C2)c2ccccc2n1CC1CCCCC1 | 5-HT1A human receptors (Homo sapiens, UniProt P08908) | 15 nM |
| CCCn1c(=O)n(C/C=C/CN2CCN(c3cccc(Cl)c3)CC2)c2ccccc21 | 5-HT1A human receptors (Homo sapiens, UniProt P08908) | 5.3 nM |

----------
measurementTarget: 5-HT1A human receptors (Homo sapiens, UniProt P08908)
Construct: expressed in transfected cells; host or cells: CHO cells
assayName: 5-HT1A radioligand receptor binding assay ([3H]-8-OH-DPAT)
runConditions: membranes from CHO cells; [3H]-8-OH-DPAT; one binding site model; read-out: 5-HT1A Receptor Binding IC50

| compound | IC50 |
| --- | --- |
| Cn1c(=O)n(C/C=C\CN2CCN(c3cccc(Cl)c3)CC2)c2ccccc21 [Compound 39] | 9.8 nM |
| O=c1n(C/C=C/CN2CCN(c3ncccn3)CC2)c2ccccc2n1CC1CCCCC1 [Compound 125] | 3.3 nM |
| CCCn1c(=O)n(C/C=C\CN2CCN(c3cccc(Cl)c3)CC2)c2ccccc21 [Compound 56] | 11 nM |
| CCCn1c(=O)n(C/C=C/CN2CCN(c3cccc(C(F)(F)F)c3)CC2)c2ccccc21 [Compound 111] | 4.4 nM |

----------
measurementTarget: 5-HT1A human receptors (Homo sapiens)
Construct: expressed in transfected cells; host or cells: CHO cells
Sequence (P08908 1-422): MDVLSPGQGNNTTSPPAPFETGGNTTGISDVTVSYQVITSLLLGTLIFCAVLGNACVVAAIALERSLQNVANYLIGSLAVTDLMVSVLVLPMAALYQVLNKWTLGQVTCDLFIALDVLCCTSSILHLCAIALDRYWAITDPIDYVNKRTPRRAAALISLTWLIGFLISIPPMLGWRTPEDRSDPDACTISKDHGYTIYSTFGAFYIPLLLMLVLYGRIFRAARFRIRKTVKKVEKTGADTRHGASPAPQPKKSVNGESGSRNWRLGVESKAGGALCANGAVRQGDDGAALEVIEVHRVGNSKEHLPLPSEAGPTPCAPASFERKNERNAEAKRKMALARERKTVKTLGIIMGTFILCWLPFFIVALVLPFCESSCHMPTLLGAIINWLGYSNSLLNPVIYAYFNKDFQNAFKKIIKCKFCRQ
assayName: 5-HT1A radioligand receptor binding assay ([3H]-8-OH-DPAT)
runConditions: compound 10^−7 M, singlicate; membranes from CHO cells; [3H]-8-OH-DPAT 0.6-0.7 nM
endpointName: inhibition at 0.1 µM (%)

| compound | measurementTarget | endpointName | experimentalResult |
| --- | --- | --- | --- |
| Cn1c(=O)n(C/C=C/CN2CC=C(c3ccccc3)CC2)c2ccccc21 [Compound 95] | 5-HT1A human receptors (Homo sapiens) | inhibition at 0.1 µM | 92 |
| CCCn1c(=O)n(C/C=C\CN2CCN(c3cccc(C(F)(F)F)c3)CC2)c2ccccc21 [Compound 60] | 5-HT1A human receptors (Homo sapiens) | inhibition at 0.1 µM | 88 |
| CCCn1c(=O)n(C/C=C/CN2CCN(c3ccccn3)CC2)c2ccccc21 [Compound 106] | 5-HT1A human receptors (Homo sapiens) | inhibition at 0.1 µM | 92 |
| CCCn1c(=O)n(C/C=C\CN2CCN(c3cccc(Cl)c3)CC2)c2ccccc21 [Compound 56] | 5-HT1A human receptors (Homo sapiens) | inhibition at 0.1 µM | 92 |
| O=c1[nH]c2ccccc2n1C/C=C\CN1CC=C(c2ccccc2)CC1 [Compound 27] | 5-HT1A human receptors (Homo sapiens) | inhibition at 0.1 µM | 87 |
| Cn1c(=O)n(C/C=C\CN2CCN(c3cccc(Cl)c3)CC2)c2ccccc21 [Compound 39] | 5-HT1A human receptors (Homo sapiens) | inhibition at 0.1 µM | 91 |
| Cn1c(=O)n(C/C=C\CN2CC=C(c3ccccc3)CC2)c2ccccc21 [Compound 44] | 5-HT1A human receptors (Homo sapiens) | inhibition at 0.1 µM | 94 |
| Cn1c(=O)n(C/C=C/CN2CCN(c3cccc(Cl)c3)CC2)c2ccccc21 [Compound 90] | 5-HT1A human receptors (Homo sapiens) | inhibition at 0.1 µM | 98 |
| Cn1c(=O)n(C/C=C\CN2CCN(c3cccc(C(F)(F)F)c3)CC2)c2ccccc21 [Compound 43] | 5-HT1A human receptors (Homo sapiens) | inhibition at 0.1 µM | 94 |
| O=c1n(C/C=C/CN2CCN(c3ccccc3)CC2)c2ccccc2n1CC1CCCCC1 [Compound 120] | 5-HT1A human receptors (Homo sapiens) | inhibition at 0.1 µM | 98 |
| O=c1n(C/C=C\CN2CC=C(c3ccccc3)CC2)c2ccccc2n1CC1CCCCC1 [Compound 78] | 5-HT1A human receptors (Homo sapiens) | inhibition at 0.1 µM | 86 |
| CCCn1c(=O)n(C/C=C/CN2CCN(c3cccc(C(F)(F)F)c3)CC2)c2ccccc21 [Compound 111] | 5-HT1A human receptors (Homo sapiens) | inhibition at 0.1 µM | 94 |
| CCCn1c(=O)n(C/C=C/CN2CCN(c3cccc(Cl)c3)CC2)c2ccccc21 [Compound 107] | 5-HT1A human receptors (Homo sapiens) | inhibition at 0.1 µM | 96 |
| Cn1c(=O)n(C/C=C/CN2CCN(c3ccccn3)CC2)c2ccccc21 [Compound 89] | 5-HT1A human receptors (Homo sapiens) | inhibition at 0.1 µM | 92 |
| O=c1[nH]c2ccccc2n1C/C=C/CN1CCN(c2cccc(C(F)(F)F)c2)CC1 [Compound 9] | 5-HT1A human receptors (Homo sapiens) | inhibition at 0.1 µM | 96 |
| O=c1n(C/C=C/CN2CCN(c3ncccn3)CC2)c2ccccc2n1CC1CCCCC1 [Compound 125] | 5-HT1A human receptors (Homo sapiens) | inhibition at 0.1 µM | 90 |
| CCCn1c(=O)n(C/C=C\CN2CC=C(c3ccccc3)CC2)c2ccccc21 [Compound 61] | 5-HT1A human receptors (Homo sapiens) | inhibition at 0.1 µM | 90 |
| O=c1n(C/C=C\CN2CCN(c3ccccc3)CC2)c2ccccc2n1CC1CCCCC1 [Compound 69] | 5-HT1A human receptors (Homo sapiens) | inhibition at 0.1 µM | 90 |
| CCCn1c(=O)n(C/C=C/CN2CC=C(c3ccccc3)CC2)c2ccccc21 [Compound 112] | 5-HT1A human receptors (Homo sapiens) | inhibition at 0.1 µM | 87 |
| O=c1n(C/C=C/CN2CCN(c3ccccn3)CC2)c2ccccc2n1CC1CCCCC1 [Compound 123] | 5-HT1A human receptors (Homo sapiens) | inhibition at 0.1 µM | 98 |
